Molecular target: human estrogen receptor alpha (hERα) (Homo sapiens)
Construct: host or cells: human U2-OS osteosarcoma cells
Sequence (P03372 1-595): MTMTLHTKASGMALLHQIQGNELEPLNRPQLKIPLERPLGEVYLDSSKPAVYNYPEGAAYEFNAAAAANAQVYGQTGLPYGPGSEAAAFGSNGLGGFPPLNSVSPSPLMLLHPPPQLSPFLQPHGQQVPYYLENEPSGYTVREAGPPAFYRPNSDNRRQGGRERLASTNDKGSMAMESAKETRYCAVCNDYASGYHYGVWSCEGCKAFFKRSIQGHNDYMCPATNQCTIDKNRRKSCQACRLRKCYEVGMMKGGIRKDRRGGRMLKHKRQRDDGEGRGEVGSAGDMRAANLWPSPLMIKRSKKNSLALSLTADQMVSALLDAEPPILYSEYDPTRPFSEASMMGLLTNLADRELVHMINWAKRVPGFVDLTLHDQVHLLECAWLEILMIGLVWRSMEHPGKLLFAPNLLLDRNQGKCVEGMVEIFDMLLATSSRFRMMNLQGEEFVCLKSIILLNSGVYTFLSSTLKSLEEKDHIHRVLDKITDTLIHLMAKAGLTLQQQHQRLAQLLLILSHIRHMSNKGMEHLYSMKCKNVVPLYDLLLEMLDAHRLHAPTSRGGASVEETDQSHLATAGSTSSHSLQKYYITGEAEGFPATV
Assay: ERα CALUX reporter gene assay in U2-OS cells
Assay type: cell-based
Conditions: ER CALUX Estrogen activity EC50, agonist mode; footnote a: inhibition of U2-OS cell growth at higher concentrations
Property Label: pEC50
Field pEC50 (float): negative decimal logarithm of the concentration in molar.

[Q] Lab note: need pEC50 with human estrogen receptor alpha (hERα) (Homo sapiens) for entry CC(C)(c1ccccc1)c1ccc(O)c(C(C)(C)c2ccccc2)c1 [2,4-di-cumylphenol] , please look it up.
[A] 5.30

* * *

Biological target: human estrogen receptor alpha (hERα) (Homo sapiens, UniProt P03372)
Construct: host or cells: human U2-OS osteosarcoma cells
Assay: ERα CALUX reporter gene assay in U2-OS cells
Format: cell-based
Details: agonist mode; footnote a: inhibition of U2-OS cell growth at higher concentrations; read-out: ER CALUX Estrogen activity EC50
pEC50: −log10 of the molar value.
Property Label: pEC50

{"Compound": "CCCCC(CC)COC(=O)CCCCC(=O)OCC(CC)CCCC (stereo not drawn) [diethylhexyladipate (DEHA), diethylhexyladipate]", "Property Label": "pEC50", "Test Result": "< 3.30"}
{"Compound": "CC(C)(C)c1ccc(O)c(C(C)(C)C)c1", "Property Label": "pEC50", "Test Result": "< 4.70"}

Could you now look at the following compound, please?
[Q] So what pEC50 did `c1ccc(CCCc2ccccc2)cc1` get with human estrogen receptor alpha (hERα) (Homo sapiens, UniProt P03372)?
[A] 4.40

* * *

Biological target: human androgen receptor (hAR) (Homo sapiens)
Sequence (P10275 whole entry): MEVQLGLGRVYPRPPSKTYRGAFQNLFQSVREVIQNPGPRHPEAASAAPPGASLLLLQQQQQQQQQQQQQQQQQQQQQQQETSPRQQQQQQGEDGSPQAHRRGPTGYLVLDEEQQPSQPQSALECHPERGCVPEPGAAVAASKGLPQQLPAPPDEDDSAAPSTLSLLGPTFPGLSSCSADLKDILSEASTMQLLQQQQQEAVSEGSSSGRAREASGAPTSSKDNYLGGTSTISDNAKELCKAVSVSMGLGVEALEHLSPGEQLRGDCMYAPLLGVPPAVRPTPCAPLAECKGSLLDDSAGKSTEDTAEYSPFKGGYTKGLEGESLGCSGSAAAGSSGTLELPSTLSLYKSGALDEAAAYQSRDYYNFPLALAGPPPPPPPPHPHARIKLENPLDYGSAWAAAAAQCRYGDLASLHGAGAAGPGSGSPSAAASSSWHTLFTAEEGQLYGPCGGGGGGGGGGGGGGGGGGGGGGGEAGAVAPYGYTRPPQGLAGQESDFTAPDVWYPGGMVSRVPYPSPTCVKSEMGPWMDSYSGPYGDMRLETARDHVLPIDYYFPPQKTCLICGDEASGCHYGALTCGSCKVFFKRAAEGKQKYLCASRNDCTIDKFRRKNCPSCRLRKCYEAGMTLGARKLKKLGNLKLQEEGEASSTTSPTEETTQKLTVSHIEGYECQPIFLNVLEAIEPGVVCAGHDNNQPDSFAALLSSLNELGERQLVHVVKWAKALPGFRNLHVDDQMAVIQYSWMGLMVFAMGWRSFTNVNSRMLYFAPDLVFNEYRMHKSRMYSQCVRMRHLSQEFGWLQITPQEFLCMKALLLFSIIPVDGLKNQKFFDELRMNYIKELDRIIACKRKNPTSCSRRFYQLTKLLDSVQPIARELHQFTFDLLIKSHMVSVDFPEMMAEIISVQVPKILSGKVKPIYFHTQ
Experiment: Yeast androgen screen (YAS)
Format: cell-based
Conditions: agonist mode; footnote b: inhibition of yeast growth at higher concentrations; read-out: YAS Androgen activity EC50
pEC50: −log10 of the molar value.
Property Label: pEC50

[Q] What measured pEC50 goes with c1ccc(CCCc2ccccc2)cc1 [1,3-diphenylpropane] ?
[A] < 3.00

* * *

Molecular target: human androgen receptor (hAR) (Homo sapiens)
Assay: Yeast androgen screen (YAS)
Assay type: cell-based
Details: antagonist mode, spiked with 2.4 nmol/l DHT; footnote b: inhibition of yeast growth at higher concentrations; read-out: YAS Antiandrogen activity EC50
Method: Briefly, different resin types of food packaging were migrated with food simulants for 10 days at 60°C. […] From every sample two independent migrates were prepared, subsequently concentrated by solid phase extraction and tested in the bioassays. […] For each migration a solvent blank of each food simulant was migrated in a glass bottle with a polytetrafluorethylene-coated cap. Prior to solid phase extraction, 1 ml and 20 ml of each migrate were set aside for HPLC and GC analysis. […]
Property Label: EC50 (µM)
Kindly provide the numeric value in µM only, without the unit symbol.

[Q] What value of EC50 has been recorded for this entry: `c1ccc(CCCc2ccccc2)cc1`
[A] 30
